PROTOCOL_NOTES: physchem
CONDITION_SET: organic solvent or mixture, solvent DMSO 80%, co-solvent (EtOH) ethanol alcohol 20%, approximate
PARAMETER_MEASURED: solubility (mg/mL)
Supply the numeric figure in mg/mL, leaving out any unit text.

stdin: Given the molecule C[C@H]1O[C@@H](O[C@H]2[C@@H](O)C[C@H](O[C@H]3[C@@H](O)C[C@H](O[C@H]4CC[C@@]5(C)[C@H](CC[C@@H]6[C@@H]5C[C@@H](O)[C@]5(C)[C@@H](C7=CC(=O)OC7)CC[C@]65O)C4)O[C@@H]3C)O[C@@H]2C)C[C@H](O)[C@@H]1O , what is its reported solubility?
stdout: 200

---

PROTOCOL_NOTES: physchem
CONDITION_SET: organic solvent or mixture, solvent Glycerine, approximate
Description: The solvents and co-solvents are listed by percentage of volume.
PARAMETER_MEASURED: solubility

stdin: Any idea what solubility was measured for C[C@H]1O[C@@H](O[C@H]2[C@@H](O)C[C@H](O[C@H]3[C@@H](O)C[C@H](O[C@H]4CC[C@@]5(C)[C@H](CC[C@@H]6[C@@H]5C[C@@H](O)[C@]5(C)[C@@H](C7=CC(=O)OC7)CC[C@]65O)C4)O[C@@H]3C)O[C@@H]2C)C[C@H](O)[C@@H]1O ?
stdout: < 14.2 mg/mL

---

PROTOCOL_NOTES: physchem
CONDITION_SET: organic solvent or mixture, solvent Ethyl acetate, approximate
PARAMETER_MEASURED: solubility

stdin: Query: solubility; subject: C[C@H]1O[C@@H](O[C@H]2[C@@H](O)C[C@H](O[C@H]3[C@@H](O)C[C@H](O[C@H]4CC[C@@]5(C)[C@H](CC[C@@H]6[C@@H]5C[C@@H](O)[C@]5(C)[C@@H](C7=CC(=O)OC7)CC[C@]65O)C4)O[C@@H]3C)O[C@@H]2C)C[C@H](O)[C@@H]1O
stdout: < 16.3 mg/mL

---

PROTOCOL_NOTES: physchem
CONDITION_SET: organic solvent or mixture, solvent Polyethylene glycol 400 90% Absolute ethanol 6%, co-solvent Water 1%, additive Propylene glycol 3%, approximate
PARAMETER_MEASURED: solubility (µg/mL)
Write the value in µg/mL as a bare number.

stdin: Which measured solubility value corresponds to C[C@H]1O[C@@H](O[C@H]2[C@@H](O)C[C@H](O[C@H]3[C@@H](O)C[C@H](O[C@H]4CC[C@@]5(C)[C@H](CC[C@@H]6[C@@H]5C[C@@H](O)[C@]5(C)[C@@H](C7=CC(=O)OC7)CC[C@]65O)C4)O[C@@H]3C)O[C@@H]2C)C[C@H](O)[C@@H]1O ?
stdout: 250

---

PROTOCOL_NOTES: physchem
CONDITION_SET: aqueous with cosolvent or surfactant or cyclodextrin, solvent Ethanol 80%, co-solvent Water 17%, additive Glycerin 3%, approximate
PARAMETER_MEASURED: solubility (µg/mL)
The reply should contain only the number, in µg/mL.

stdin: Item under review: C[C@H]1O[C@@H](O[C@H]2[C@@H](O)C[C@H](O[C@H]3[C@@H](O)C[C@H](O[C@H]4CC[C@@]5(C)[C@H](CC[C@@H]6[C@@H]5C[C@@H](O)[C@]5(C)[C@@H](C7=CC(=O)OC7)CC[C@]65O)C4)O[C@@H]3C)O[C@@H]2C)C[C@H](O)[C@@H]1O . Reported solubility?
stdout: 9000

---

PROTOCOL_NOTES: physchem
CONDITION_SET: organic solvent or mixture, solvent Acetone, approximate
PARAMETER_MEASURED: solubility

stdin: Fill in the blank: the reported solubility of C[C@H]1O[C@@H](O[C@H]2[C@@H](O)C[C@H](O[C@H]3[C@@H](O)C[C@H](O[C@H]4CC[C@@]5(C)[C@H](CC[C@@H]6[C@@H]5C[C@@H](O)[C@]5(C)[C@@H](C7=CC(=O)OC7)CC[C@]65O)C4)O[C@@H]3C)O[C@@H]2C)C[C@H](O)[C@@H]1O is ____.
stdout: < 30 mg/mL

---

PROTOCOL_NOTES: physchem
CONDITION_SET: aqueous with cosolvent or surfactant or cyclodextrin, solvent 2-P 56%, co-solvent Water 44%, approximate
PARAMETER_MEASURED: solubility

stdin: // lookup solubility for C[C@H]1O[C@@H](O[C@H]2[C@@H](O)C[C@H](O[C@H]3[C@@H](O)C[C@H](O[C@H]4CC[C@@]5(C)[C@H](CC[C@@H]6[C@@H]5C[C@@H](O)[C@]5(C)[C@@H](C7=CC(=O)OC7)CC[C@]65O)C4)O[C@@H]3C)O[C@@H]2C)C[C@H](O)[C@@H]1O
stdout: 56 mg/mL

---

PROTOCOL_NOTES: physchem
CONDITION_SET: organic solvent or mixture, solvent 2-P 80%, co-solvent Ethanol 20%, approximate
PARAMETER_MEASURED: solubility

stdin: # get_value(readout='solubility', item= C[C@H]1O[C@@H](O[C@H]2[C@@H](O)C[C@H](O[C@H]3[C@@H](O)C[C@H](O[C@H]4CC[C@@]5(C)[C@H](CC[C@@H]6[C@@H]5C[C@@H](O)[C@]5(C)[C@@H](C7=CC(=O)OC7)CC[C@]65O)C4)O[C@@H]3C)O[C@@H]2C)C[C@H](O)[C@@H]1O [Digoxin] )
stdout: ≥ 75 mg/mL

---

PROTOCOL_NOTES: physchem
CONDITION_SET: organic solvent or mixture, solvent Ethylene glycol (LEG), approximate
PARAMETER_MEASURED: solubility

stdin: Need solubility of C[C@H]1O[C@@H](O[C@H]2[C@@H](O)C[C@H](O[C@H]3[C@@H](O)C[C@H](O[C@H]4CC[C@@]5(C)[C@H](CC[C@@H]6[C@@H]5C[C@@H](O)[C@]5(C)[C@@H](C7=CC(=O)OC7)CC[C@]65O)C4)O[C@@H]3C)O[C@@H]2C)C[C@H](O)[C@@H]1O [Digoxin] , thanks.
stdout: < 16.3 mg/mL

---

PROTOCOL_NOTES: physchem
CONDITION_SET: organic solvent or mixture, solvent Ethanol 100%, approximate
PARAMETER_MEASURED: solubility (µg/mL)
Output spec: scalar in µg/mL, unitless text.

stdin: What measured solubility goes with C[C@H]1O[C@@H](O[C@H]2[C@@H](O)C[C@H](O[C@H]3[C@@H](O)C[C@H](O[C@H]4CC[C@@]5(C)[C@H](CC[C@@H]6[C@@H]5C[C@@H](O)[C@]5(C)[C@@H](C7=CC(=O)OC7)CC[C@]65O)C4)O[C@@H]3C)O[C@@H]2C)C[C@H](O)[C@@H]1O ?
stdout: 9000

---

PROTOCOL_NOTES: physchem
CONDITION_SET: water, solvent Water, approximate
PARAMETER_MEASURED: solubility

stdin: What does the record list as solubility for C[C@H]1O[C@@H](O[C@H]2[C@@H](O)C[C@H](O[C@H]3[C@@H](O)C[C@H](O[C@H]4CC[C@@]5(C)[C@H](CC[C@@H]6[C@@H]5C[C@@H](O)[C@]5(C)[C@@H](C7=CC(=O)OC7)CC[C@]65O)C4)O[C@@H]3C)O[C@@H]2C)C[C@H](O)[C@@H]1O [Digoxin] ?
stdout: 24 to 70 µg/mL

Taken from patent US20050203482A1.
